Tested on: K-562 leukemia
Test: NCI-60 one-dose screen, 48 h (100 = growth as untreated, 0 = no growth, -100 = all killed)
Conditions: 10 µM unless noted
Compounds without any hit were thinned out: in the full panel of roughly 83,000, 20% have a hit.
MEASURE: growth (%)
The answer is to be given in %; state only the numeric part.

Task: Request the reported growth associated with O=C(Nc1ccc2[nH]c3ccccc3c2c1)c1ccccc1Cl
Result: 10

Task: Input Cc1ccc(S(=O)(=O)NC(CCC(=O)Nc2ccc(Cl)cc2)C(=O)Nc2ccc(Cl)cc2)cc1 (centres undefined)
Result: 2.8

Task: Also, COc1cc2nccc(Oc3ccc(NC(=O)C4(C(=O)Nc5ccc(F)cc5)CC4)cc3)c2cc1Oc1ccc(N)cn1 please.
Result: 3.07

Task: Param item: COc1ccc2c(c1)N(CCO)C1=C(C(=O)OC1)C2c1cccc(Br)c1 (centres undefined)
Result: 13.6

Task: Would you mind doing COc1ccc(-c2nc3ccc(Cc4ccc5nc(-c6ccc(OC)cc6)[nH]c5c4)cc3[nH]2)cc1 as well?
Result: 13.4

Task: Also O=C(c1ccc(C(F)(F)F)c(Cl)c1)N(Cc1ccc(Cl)cc1)c1ccc(-c2cc(C(F)(F)F)[nH]n2)c(O)c1 ?
Result: 7.36

Task: Repeat with CCC(C)C1NC(=O)c2nc(oc2-c2ccccc2)-c2csc(n2)-c2csc(n2)-c2nc(oc2C)-c2coc(n2)CNC(=O)C(C(C)CC)NC1=O (centres undefined)
Result: -66.3

Task: And the next one, CO[C@@]12[C@@H]3NC3CN1C1=C(C(=O)C(N)=C(C)C1=O)[C@@H]2COC(N)=O (some centres undefined) ?
Result: 28.7

Task: Please answer likewise for O=C(Nc1ccc(Oc2ccc(NC(=O)Nc3ccccc3Cl)cc2)cc1)Nc1ccccc1Cl
Result: 33.6

Task: // same read-out, input: CCN(CC)CCCC(C)N/C(c1cccc(OC)c1)=c1\c(=O)[nH]n(-c2c3ccccc3nc3ccccc23)c(=O)\c1=C(/NC(C)CCCN(CC)CC)c1cccc(OC)c1 (centres undefined)
Result: -22.1

Task: Param item: C[C@@H](C[C@H](CC1CC1)c1ccccc1)c1ccc2ccccc2c1
Result: 104

Task: Param item: O=C(Nc1cnc(C(F)(F)F)cn1)c1cc(Cl)ccc1O
Result: 7.07

Task: Now consider CCCCNCCC(O)c1cc2ccc(C(F)(F)F)cc2c2cc(C(F)(F)F)ccc12 (centres undefined) and answer again.
Result: -72.1

Task: Try this compound next: COc1ccc(-c2cnc3ccnn3c2-c2cc(OC)c(OC)c(OC)c2)cc1
Result: 5.43

Task: CCN(C(=O)Nc1cccc2ccccc12)c1ccccc1 , same question.
Result: 89.3

Task: Consider next the compound c1ccc2c(Cc3csc4ccccc34)csc2c1 in the same way.
Result: 23.8

Task: Quick one: CN(C)c1ccc(C(c2ccccc2)c2ccc(N(C)C)cc2)cc1
Result: 73.4

Task: Same again, this time with Fc1cnccc1-c1nc2ccc3[nH]ncc3c2c2c1CCCC2
Result: 30.9

Task: Ok, now Oc1ccc(Nc2ncnc3c2sc2ncccc23)cc1
Result: 38.2

Data origin, for the record: PubChem BioAssay (NCI)
